Biological target: Fibroblast growth factor 2 (Homo sapiens) (UniProt P09038)
Sequence (P09038 whole entry, looked up): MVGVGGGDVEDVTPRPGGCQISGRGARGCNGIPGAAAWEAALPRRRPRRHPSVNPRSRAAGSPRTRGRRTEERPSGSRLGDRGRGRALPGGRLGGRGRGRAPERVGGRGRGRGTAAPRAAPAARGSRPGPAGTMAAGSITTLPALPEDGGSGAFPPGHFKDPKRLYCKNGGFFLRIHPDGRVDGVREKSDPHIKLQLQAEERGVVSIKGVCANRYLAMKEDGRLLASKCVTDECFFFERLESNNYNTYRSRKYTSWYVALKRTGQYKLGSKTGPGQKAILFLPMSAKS
Experiment: FGF2 binders on small-molecule microarrays, primary screen, biochemical, small-molecule microarray, 635/667 nm fluorescence (AID 1133)
Conditions: small-molecule microarray binding, FGF2, fluorescence 635/667; higher = more signal
Record yes (1) whenever composite z-score is at 0.7 or higher; record no (0) when lower.

O=C1O[C@H](c2ccccc2)[C@H](c2ccccc2)N2[C@H]1[C@@H](C(=O)N1CCCCCCC1)[C@]1(C(=O)Nc3ccc(C#CCCO)cc31)[C@H]2c1ccc(O)cc1: yes (1)

Shifting focus to the molecule that follows.
Task item: Evaluate C[C@]12C(=O)N(CCO)[C@@H]3C(=O)N(c4ccc(Cl)cc4)CC=CC31O[C@@H]1/C=C\CCCOC(=O)C12 (some centres undefined) : composite z-score at minimum 0.7?
Reply: no (0)

* * *

Tested on: Wnt5a (protein binding on small-molecule microarray)
Assay: Wnt5a binders on small-molecule microarray, primary screen, biophysical, 635/667 nm fluorescence (AID 1142);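 note: fluorescence read at 667 nm with signal to noise per printed feature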
Settings: 635 nm fluorescence, higher = more signal
The following compounds are shown together with reported composite z-score values.
Please state the value as a number alone, without comment.

C=CCNC(=O)[C@@H]1[C@H]2C(=O)O[C@H](c3ccccc3)[C@H](c3ccccc3)N2[C@H](c2ccc(OCCO)cc2)[C@@]12C(=O)N(C(=O)OCCOC)c1ccccc12: 0.538
Cc1ccc(N2C(=O)c3ccccc3[C@@H](C(=O)NCCN3CCOCC3)[C@@H]2c2ccc(CO)cc2)nc1: -0.275
CN1C(=O)C2CC=C(C3=CCO[C@@H]3[C@H]3CCCN3S(=O)(=O)c3ccccc3[N+](=O)[O-])CC2C1=O (stereo partly specified): 0.0169
C=CCNC(=O)[C@H]1[C@@H]2C(=O)O[C@@H](c3ccccc3)[C@@H](c3ccccc3)N2[C@@H](c2ccc(O)cc2)[C@]12C(=O)Nc1ccc(C#CCC(C(=O)OC)C(=O)OC)cc12: -0.223
C=CCOC(=O)[C@H]1[C@@H]2C(=O)O[C@@H](c3ccccc3)[C@@H](c3ccccc3)N2[C@@H](c2ccc(OCCOC(=O)[C@H]3C[C@H]4C(=O)NCC(=O)N4[C@H]3c3cccc(OCCO)c3)cc2)[C@]12C(=O)Nc1ccc(I)cc12: 0.984

Next up:
Task item: State the recorded composite z-score for this entry: C=CC[C@@]1(C(=O)NCCCOC)N=C(c2ccc(OCCCO)cc2)O[C@@H]1c1ccccc1CN=[N+]=[N-]
Reply: 0.645

* * *

The following compounds are shown together with reported z-score values.
Experiment: S. cerevisiae growth modulation with rapamycin, primary screen, strain BY4716, OD600, 96 h (AID 1091); note: test concentration not given here
Settings: higher = more signal, called active from +8 up or from −8 down
Please state the value as a number alone, without comment.

COCCCNC(=O)[C@@]1(c2ccc([N+](=O)[O-])cc2)CC(=O)N(C2CCCCC2)[C@@H]1c1ccc(CO)cc1I: -0.0938

Task item: State the recorded z-score for this entry: CC(C)(C)OC(=O)CC[C@]1(C(=O)N2CCOCC2)COC(c2ccc(OCCCO)cc2)=N1
Reply: 0.911

Task item: Same question for CC[C@H]1C2=C3C(CC[C@H]4C(OCc5ccc(F)cc5C(F)(F)F)OC[C@](C)([C@@H]34)N(C(=O)OC(C)(C)C)C2)C(COC(C)=O)C1COC(C)=O (stereo not given in full) please.
Reply: 1.46

Task item: Same question for COC(=O)[C@@]1(Cc2ccc(F)cc2)[C@@H]2C(=CC(=O)[C@H]2CC(=O)C(=O)N2CCCC2)CN1C(=O)c1ccccc1 please.
Reply: 0.413

Task item: Same question for CCN1C(=O)C2CC(=O)C3C(CN(S(=O)(=O)c4ccc(C)cc4)C3c3ccc(C)cc3)C2C1=O (stereo not given) please.
Reply: 0.627

Task item: Same question for C=CCNC(=O)[C@H]1[C@@H]2C(=O)O[C@@H](c3ccccc3)[C@@H](c3ccccc3)N2[C@@H](c2ccc(O)cc2)[C@]12C(=O)Nc1ccc(C#CCC(C(=O)OC)C(=O)OC)cc12 please.
Reply: -0.836

* * *

The following compounds are shown together with reported z-score values.
Experiment: HepG2 liver cancer cell viability effects, profiling panel, resazurin fluorescence, 24 h, PK04 Diversity Set (AID 1172); note: test concentration not given here
Conditions: higher = more signal
Please state the value as a number alone, without comment.

C=CCC(OC(C)=O)[C@@H]1[C@@H](N(Cc2ccc(-c3ccccc3)cc2)C(=O)Cc2ccc(OC)cc2)c2cc(OCCCO)ccc2N1C(=O)Cc1ccc(OC)cc1 (some centres not stated): -0.626
O=C(NCCN1CCOCC1)[C@@H]1c2ccccc2C(=O)N(CC23CC4CC(CC(C4)C2)C3)[C@H]1c1ccc(CO)cc1: 0.258
O=C1c2ccccc2[C@@]2(Cc3ccccc3N(CC(F)(F)F)C2=O)[C@H](c2ccc(CO)cc2)N1Cc1ccccc1: -0.584
C=CC[C@H](O)c1ccc(O)c(F)c1: -0.632
COCCOC(=O)N1C(=O)[C@@]2(c3cc(C#CCNC(N)=O)ccc31)[C@H](c1ccccc1OCCO)N1[C@H](c3ccccc3)[C@H](c3ccccc3)OC(=O)[C@H]1[C@@H]2C(=O)N1CCCCCCC1: 0.875

Task item: State the recorded z-score for this entry: CN1C(=O)C2C(C1=O)C1C=C(CCCO)C2C(C2CC2)N1C (configuration not stated)
Reply: -1.15

Task item: Same question for O=C(NCC(F)(F)F)[C@@H]1c2ccccc2C(=O)N(Cc2cc(C(F)(F)F)cc(C(F)(F)F)c2)[C@H]1c1ccc(CO)cc1 please.
Reply: 0.0606

* * *

Test system: Human papillomavirus type 1a protein E7 (residues 44-93)
Experiment: HPV1a E7 fragment binders on microarrays, primary screen, biochemical, small-molecule microarray, residues 44-93, 635 nm fluorescence (AID 1108);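 note: E7 fragment applied at 1 µg/mL in TBST for 1 h at 4 C; score combines spot fluorescence with its signal to noise ratio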
Conditions: small-molecule microarray binding, fluorescence 635 nm; higher = more signal
Reported endpoint: composite z-score
Please state the value as a number alone, without comment.

Task item: State the recorded composite z-score for this entry: COc1ccc([Si](C)(C)[C@H]2[C@H](CCO)O[C@@]3(C(=O)N(Cc4ccccc4)c4ccc(NC(=O)[C@H](C)O)cc43)[C@@H]2C)cc1
Reply: 1.37

Task item: Same question for [N-]=[N+]=NCc1ccccc1[C@H]1OC(c2ccc(OCCCO)cc2)=N[C@@]1(Cc1ccccc1N=[N+]=[N-])C(N)=O please.
Reply: 1.44

Task item: Same question for COC(=O)Cn1c(C(=O)N(C)C)cc2c1C[C@H]1CN(C(=O)c3ccccc3)[C@@](Cc3ccccc3)(C(=O)OC)[C@@H]21 please.
Reply: -1.8

Task item: Same question for O=C1c2ccccc2[C@@]2(Cc3ccccc3N(CC(F)(F)F)C2=O)[C@H](c2ccc(CO)cc2)N1Cc1ccccc1 please.
Reply: -0.143

Task item: Same question for COCCOC(=O)N1C(=O)[C@@]2(c3cc(C#CC4(O)CCCCCC4)ccc31)[C@H](C(N)=O)[C@H]1C(=O)O[C@H](c3ccccc3)[C@H](c3ccccc3)N1[C@@H]2c1ccc(OCCO)cc1 please.
Reply: 0.688

Task item: Same question for COc1cccc(C)c1NC(=O)O[C@H]1[C@H](OC(=O)Nc2ccccc2-c2ccccc2)[C@@H](OC(=O)Nc2ccccc2-c2ccccc2)[C@@H](OC)O[C@@H]1CO please.
Reply: 1.52

* * *

Assay: small-molecule microarray binders of probe aXIP, primary screen, biochemical, NeuroSMM set, 635/667 nm fluorescence (AID 1119);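 note: probe is the protein aXip251-270 applied at 1 µg/mL to compound-printed slides; binding of probe to printed compounds measured as 667 nm fluorescence plus signal to noise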
Conditions: higher = more signal, called active from +8 up or from −8 down
Record 1 whenever composite Z-score is at 0.2 or higher; record 0 when lower.

These solved cases illustrate the format of a correct answer.
C[N+](C)(C)CCCC[C@@H]1NC(=O)[C@H]2C[C@@H](C(=O)O)[C@@H](c3ccc(O)cc3)N2C1=O: 0
[N-]=[N+]=Nc1ccccc1C[C@]1(C(N)=O)COC(c2ccc(OCCCO)cc2)=N1: 1
[N-]=[N+]=NCc1ccccc1C[C@@]1(C(=O)NCCN2CCOCC2)N=C(c2ccc(OCCCO)cc2)O[C@@H]1c1ccccc1: 1

Task item: Evaluate COCCOC(=O)N1C(=O)[C@@]2(c3ccccc31)[C@H](C(=O)Nc1nc3ccccc3s1)[C@H]1C(=O)O[C@H](c3ccccc3)[C@H](c3ccccc3)N1[C@@H]2c1ccccc1OCCO : composite Z-score at minimum 0.2?
Reply: 0

Task item: Same question for Cc1ccc(S[C@]2(C(=O)NCCN3CCOCC3)CC(=O)N(C(C)C)[C@@H]2c2ccc(CO)cc2I)cc1 please.
Reply: 1

Task item: Same question for COc1cccc(C)c1NC(=O)O[C@H]1[C@H](OC(=O)Nc2ccc3c(c2)OCO3)[C@H](OC(=O)Nc2ccc3c(c2)OCO3)[C@@H](OC)O[C@@H]1CO please.
Reply: 1

* * *

Assay: Plasmodium falciparum growth inhibition, primary screen, strain 3D7, DAPI fluorescence, 100 nL (AID 1184);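 note: parasites grown inside human red blood cells in medium with human serum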
Settings: P. falciparum 3D7 growth, 3 d, higher = more signal
The following compounds are shown together with reported z-score values.
Please state the value as a number alone, without comment.

Check out these entries, answers already filled in.
C=CCOC(=O)[C@@H]1[C@H]2C(=O)O[C@H](c3ccccc3)[C@H](c3ccccc3)N2[C@H](c2ccc(OCCOC(=O)[C@@H]3C[C@@H]4C(=O)N[C@@H](CC(C)C)C(=O)N4[C@@H]3c3ccc(O)cc3)cc2)[C@@]12C(=O)Nc1ccc(I)cc12: -1.51
CCCC=C(CCC)[C@@H](NC(=O)c1ccc(C(=O)OC)cc1)c1ccc(C(=O)OC)cc1: -0.685

Next up:
Task item: State the recorded z-score for this entry: C=C(COC)C(=O)CC[C@@H](OC(=O)c1ccccc1-c1ccccc1C(=O)O)c1ccccc1OCCO
Reply: -2.51
